These measurements were taken from ChEMBL document CHEMBL1649206.

Test system: Klebsiella pneumoniae
Assay: Antimicrobial activity against Klebsiella pneumoniae isolate H-1406 expressing VIM-1 and KPC-2 genes by microdilution method
Assay type: functional
measure_name: MIC (mg/L)
Reply numerically in mg/L, unit not repeated.

Qu. Find the measured MIC: item C[C@@H](O)[C@H]1C(=O)N2C(C(=O)O)=C(S[C@@H]3CN[C@H](C(=O)N(C)C)C3)[C@H](C)[C@H]12 , target or system Klebsiella pneumoniae.
Ans. 8

Qu. Find the measured MIC: item CO/N=C(\C(=O)N[C@@H]1C(=O)N2C(C(=O)[O-])=C(C[N+]3(C)CCCC3)CS[C@H]12)c1csc(N)n1 , target or system Klebsiella pneumoniae.
Ans. 128

Qu. Find the measured MIC: item C[C@H]1[C@H](NC(=O)/C(=N\OC(C)(C)C(=O)O)c2csc(N)n2)C(=O)N1S(=O)(=O)O , target or system Klebsiella pneumoniae.
Ans. 64

Qu. Find the measured MIC: item CO/N=C(\C(=O)N[C@@H]1C(=O)N2C(C(=O)O)=C(COC(C)=O)CS[C@H]12)c1csc(N)n1 , target or system Klebsiella pneumoniae.
Ans. 256
